# assayed system: KRAS-G12D (Homo sapiens, UniProt P01116, G12D)
# Construct: endogenous in cells; host or cells: A-427 (ATCC), AGS, AsPc-1, Panc 04.03
# test description: KRAS-G12D degradation assay (Western Blot), AsPc-1 cells
# Type: cell-based
# particulars: ASPC1, 24 h
readout name: Dmax
Write the quantity with the unit trailing the number.

Challenge: Suppose we examine the compound C#Cc1cccc2cc(O)cc(-c3ccc4c(N5CC6CCC(C5)N6)nc(OCC5(CN6CCN(CC7CCC8(CC7)CCN(C(=O)c7ccc(Cl)c(N9CCC(=O)NC9=O)c7)CC8)CC6)CC5)nc4c3F)c12 [Example 78] ; what Dmax value has been reported?
Response given: 100%

Challenge: Suppose we examine the compound Cc1ccc(C(=O)N2CCC3(CCC(CN4CCN(CC5(COc6nc(N7CC8CCC(C7)N8)c7cnc(-c8cc(O)cc(Cl)c8C8CC8)c(F)c7n6)CC5)CC4)CC3)CC2)cc1N1CCC(=O)NC1=O [Example 81] ; what Dmax value has been reported?
Response given: 98.2%

Challenge: Suppose we examine the compound C#Cc1cccc2cc(O)cc(-c3ncc4c(N5CC6CCC(C5)N6)nc(OCC5(CN6CCN(CC7CCC8(CC7)CCN(C(=O)c7ccc(OC)c(N9CCC(=O)NC9=O)c7)CC8)CC6)CC5)nc4c3F)c12 [Example 82] ; what Dmax value has been reported?
Response given: 93.7%

Challenge: Suppose we examine the compound C#Cc1c(F)ccc2cc(O)cc(-c3ncc4c(N5CC6CCC(C5)N6)nc(OC[C@H](C)CN5CCN(CC6CCC7(CC6)CCN(C(=O)c6ccc(C)c(N8CCC(=O)NC8=O)c6)CC7)CC5)nc4c3F)c12 [Example 100] ; what Dmax value has been reported?
Response given: 100%

----------
# assayed system: KRAS-G12D (Homo sapiens, UniProt P01116, G12D)
# Construct: endogenous in cells; host or cells: A-427 (ATCC), AGS, AsPc-1, Panc 04.03
# test description: KRAS-G12D degradation assay (Western Blot), Panc 04.03 cells
# Type: cell-based
# particulars: 24 h
Exercise: for every item that follows, state its recorded Dmax.
The response must be a number in % with no trailing unit.

Challenge: Suppose we examine the compound CCc1c(F)ccc2cc(O)cc(-c3ncc4c(N5CC6CCC(C5)N6)nc(OCC5(CN6CCN(CC7CCC8(CC7)CCN(C(=O)c7ccc(OC)c(N9CCC(=O)NC9=O)c7)CC8)CC6)CC5)nc4c3F)c12 ; what Dmax value has been reported?
Response given: 98.9

Challenge: Suppose we examine the compound CCc1cccc2cc(O)cc(-c3ncc4c(N5CC6CCC(C5)N6)nc(OCC5(CN6CCN(CC7CCC8(CC7)CCN(C(=O)c7ccc(OC)c(N9CCC(=O)NC9=O)c7)CC8)CC6)CC5)nc4c3F)c12 ; what Dmax value has been reported?
Response given: 100

Challenge: Suppose we examine the compound CCc1cccc2cc(O)cc(-c3ncc4c(N5CC6CCC(C5)N6)nc(OCC5(CN6CCN(CC7CCC8(CC7)CCN(C(=O)c7ccc(Cl)c(N9CCC(=O)NC9=O)c7)CC8)CC6)CC5)nc4c3F)c12 ; what Dmax value has been reported?
Response given: 99.3

Challenge: Suppose we examine the compound CCc1cccc2cc(O)cc(-c3ncc4c(N5CC6CCC(C5)N6)nc(OCC5(CN6CCN(CC7CCC8(CC7)CCN(C(=O)c7ccc(C)c(N9CCC(=O)NC9=O)c7)CC8)CC6)CC5)nc4c3F)c12 ; what Dmax value has been reported?
Response given: 93.8

Challenge: Suppose we examine the compound C#Cc1c(F)ccc2cc(O)cc(-c3ncc4c(N5CC6CCC(C5)N6)nc(OCC(C)CN5CCN(CC6CCC7(CC6)CCN(C(=O)c6ccc(OC)c(N8CCC(=O)NC8=O)c6)CC7)CC5)nc4c3F)c12 (stereo not drawn) ; what Dmax value has been reported?
Response given: 98.6

Challenge: Suppose we examine the compound CCc1c(F)ccc2cc(O)cc(-c3ccc4c(N5CC6CCC(C5)N6)nc(OCC5(CN6CCN(CC7CCC8(CC7)CCN(C(=O)c7ccc(C)c(N9CCC(=O)NC9=O)c7)CC8)CC6)CC5)nc4c3F)c12 ; what Dmax value has been reported?
Response given: 92

Challenge: Suppose we examine the compound CCc1c(F)ccc2cc(O)cc(-c3ccc4c(N5CC6CCC(C5)N6)nc(OCC5(CN6CCN(CC7CCC8(CC7)CCN(C(=O)c7ccc(OC)c(N9CCC(=O)NC9=O)c7)CC8)CC6)CC5)nc4c3F)c12 ; what Dmax value has been reported?
Response given: 95.6

Challenge: Suppose we examine the compound C#Cc1cccc2cc(O)cc(-c3ccc4c(N5CC6CCC(C5)N6)nc(OCC5(CN6CCN(CC7CCC8(CC7)CCN(C(=O)c7ccc(C)c(N9CCC(=O)NC9=O)c7)CC8)CC6)CC5)nc4c3F)c12 ; what Dmax value has been reported?
Response given: 98.5

Challenge: Suppose we examine the compound C#Cc1c(F)ccc2cc(O)cc(-c3ccc4c(N5CC6CCC(C5)N6)nc(OCC5(CN6CCN(CC7CCC8(CC7)CCN(C(=O)c7ccc(C)c(N9CCC(=O)NC9=O)c7)CC8)CC6)CC5)nc4c3F)c12 ; what Dmax value has been reported?
Response given: 100

----------
Exercise: for every item that follows, state its recorded IC50.
# Test system: KRAS G12D mutant human gastric cancer cell AGS
# test description: 3D cell proliferation inhibition assay, AGS
# Assay type: cell-based
# particulars: 168 h, 7 days, CTG, class symbols

Challenge: Suppose we examine the compound C#Cc1c(F)ccc2cc(O)cc(-c3ncc4c(N5CC6CCC(C5)N6)nc(SCC5(CN6CCN(CC7CCC8(CC7)CCN(C(=O)c7ccc(OC)c(N9CCC(=O)NC9=O)c7)CC8)CC6)CC5)nc4c3F)c12 ; what IC50 value has been reported?
Response given: ≤ 50 nM

Challenge: Suppose we examine the compound C#Cc1c(F)ccc2cc(O)cc(-c3ncc4c(N5CC6CCC(C5)N6)nc(OCCN5CCN(CC6CCC7(CC6)CCN(C(=O)c6ccc(Cl)c(N8CCC(=O)NC8=O)c6)CC7)CC5)nc4c3F)c12 ; what IC50 value has been reported?
Response given: ≤ 50 nM

Challenge: Suppose we examine the compound CCc1c(F)ccc2cc(O)cc(-c3ncc4c(N5CC6CCC(C5)N6)nc(OCC5(CN6CCN(CCCC7CCN(C(=O)c8ccc(Cl)c(N9CCC(=O)NC9=O)c8)CC7)CC6)CC5)nc4c3F)c12 ; what IC50 value has been reported?
Response given: ≤ 50 nM

Challenge: Suppose we examine the compound C#Cc1c(F)ccc2cc(O)cc(-c3ncc4c(N5CC6CCC(C5)N6)nc(OCC5(CN6CCN(CC7CCN(C(=O)c8ccc(Cl)c(N9CCC(=O)NC9=O)c8)CC7)CC6)CC5)nc4c3F)c12 ; what IC50 value has been reported?
Response given: ≤ 50 nM

Challenge: Suppose we examine the compound C#Cc1c(F)ccc2cc(O)cc(-c3ncc4c(N5CC6CCC(C5)N6)nc(OCC5(CN6CCC(COCC7CCN(C(=O)c8ccc(Cl)c(N9CCC(=O)NC9=O)c8)CC7)CC6)CC5)nc4c3F)c12 ; what IC50 value has been reported?
Response given: ≤ 50 nM

----------
# assayed system: Human KRAS G12D 6His-tagged (Homo sapiens, UniProt P01116, G12D)
# Construct: purchased PerkinElmer
# Sequence (P01116 1-188 isoform P01116-2 G12D): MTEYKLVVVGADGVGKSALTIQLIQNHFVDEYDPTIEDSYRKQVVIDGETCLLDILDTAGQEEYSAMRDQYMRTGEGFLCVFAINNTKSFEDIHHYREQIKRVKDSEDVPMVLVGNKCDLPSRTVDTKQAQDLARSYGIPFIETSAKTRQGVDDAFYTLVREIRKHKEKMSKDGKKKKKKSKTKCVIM
# test description: KRAS-G12D/GTP binding assay (HTRF)
# particulars: class symbols
# Method: In this method, the inhibitory effects of the compounds on the binding of KRAS-G12D to GTP were assayed by a homogeneous time-resolved fluorescence (HTRF) technique using a KRAS-G12D/GTP binding assay kit (PerkinElmer). […]
readout name: IC50

Challenge: Suppose we examine the compound C#Cc1c(F)ccc2cc(O)cc(-c3ncc4c(N5CC6CCC(C5)N6)nc(OC[C@@H]5CCCN5CCCC5CCN(C(=O)c6ccc(Cl)c(N7CCC(=O)NC7=O)c6)CC5)nc4c3F)c12 ; what IC50 value has been reported?
Response given: 50 to 100 nM

Challenge: Suppose we examine the compound C#Cc1c(F)ccc2cc(O)cc(-c3ncc4c(N5CC6CCC(C5)N6)nc(OC[C@@H]5CCCN5CC5CCC6(CC5)CCN(C(=O)c5ccc(Cl)c(N7CCC(=O)NC7=O)c5)CC6)nc4c3F)c12 ; what IC50 value has been reported?
Response given: 100 to 500 nM

Challenge: Suppose we examine the compound C#Cc1c(F)ccc2cc(O)cc(-c3ccc4c(N5CC6CCC(C5)N6)nc(OCC5(CN6CCN(CC7CCC8(CC7)CCN(C(=O)c7ccc(C)c(N9CCC(=O)NC9=O)c7)CC8)CC6)CC5)nc4c3F)c12 ; what IC50 value has been reported?
Response given: ≤ 50 nM

Challenge: Suppose we examine the compound C#Cc1cccc2cc(O)cc(-c3ncc4c(N5CC6CCC(C5)N6)nc(OCC5(CN6CCN(CC7CCC8(CC7)CCN(C(=O)c7ccc(Cl)c(N9CCC(=O)NC9=O)c7)CC8)CC6)CC5)nc4c3F)c12 ; what IC50 value has been reported?
Response given: ≤ 50 nM

Challenge: Suppose we examine the compound C#Cc1c(F)ccc2cc(O)cc(-c3ncc4c(N5CC6CCC(C5)N6)nc(OCC5(CN6CCN(CCCCC7CCC8(CC7)CCN(C(=O)c7ccc(Cl)c(N9CCC(=O)NC9=O)c7)CC8)CC6)CC5)nc4c3F)c12 ; what IC50 value has been reported?
Response given: ≤ 50 nM
